The measurements presented in this section are drawn from patent US10144715B2.

Biological target: LXR β LBD protein (Homo sapiens (Human), UniProt P55055)
Assay: biochemical
Format: binding
Conditions: read-out: LXRβ Binding Ki
measuredMetric: pKi
Here pKi is given on a logarithmic scale as minus log10 of the concentration in mol/L.

# input Consider the molecule `CC(C)[C@@H]1CN(c2ccc(F)c(S(C)(=O)=O)c2)CCN1C(=O)OC(C)(C)C` and give its measured pKi.
# output 6.68

# input Consider the molecule `CC(C)[C@@H]1CN(c2ccc(F)c(S(C)(=O)=O)c2)CCN1c1cncc(C(F)(F)F)n1` and give its measured pKi.
# output 7.92

# input Consider the molecule `Cc1nnc(-c2ccc(N3CCN(c4ncc(CO)c(C(F)(F)F)n4)[C@H](C(C)C)C3)cc2S(C)(=O)=O)o1` and give its measured pKi.
# output 6.61

# input Consider the molecule `CNC(=O)c1cnc(N2CCN(c3ccc(F)c(S(C)(=O)=O)c3)C[C@H]2C(C)C)nc1C(F)(F)F` and give its measured pKi.
# output 6.73

====

For each record, write down the corresponding Cell LXRβ efficacy.
Target: Gal4 DNA binding domain fused to the LBD of LXRβ in HEK293 cells (Homo sapiens (Human), UniProt P55055)
Sequence (P55055 222-460 limits assumed): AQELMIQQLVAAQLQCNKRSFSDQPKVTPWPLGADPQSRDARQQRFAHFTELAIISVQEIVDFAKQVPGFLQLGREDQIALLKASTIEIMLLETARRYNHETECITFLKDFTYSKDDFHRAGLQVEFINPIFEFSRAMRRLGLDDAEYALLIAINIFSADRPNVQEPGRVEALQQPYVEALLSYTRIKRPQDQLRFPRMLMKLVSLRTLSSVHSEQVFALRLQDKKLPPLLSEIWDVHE
Test: cell-based
Format: cell-based

# input Consider the compound `CC(C)[C@@H]1CN(c2ccc(F)c(S(C)(=O)=O)c2)CCN1c1nccc(OCC(F)(F)F)n1` and give its measured Cell LXRβ efficacy.
# output 91 (93) %

# input Consider the compound `CCOC(=O)CN(C)C(=O)c1cnc(N2CCN(c3ccc(F)c(S(C)(=O)=O)c3)C[C@H]2C(C)C)nc1C(F)(F)F` and give its measured Cell LXRβ efficacy.
# output 361 (86) %

# input Consider the compound `Cc1ccc(N2CCN(c3cccc(S(C)(=O)=O)c3)C[C@H]2C(C)C)nc1C1CC1` and give its measured Cell LXRβ efficacy.
# output 146 (93) %

====

Molecular target: Gal4 DNA binding domain fused to the LBD of LXRβ in HEK293 cells (Homo sapiens (Human))
Assay: cell-based
measuredMetric: EC50 (nM)
Answer in nM, number only, no unit symbol.

# input Consider the compound `CC(C)[C@@H]1CN(c2ccc(Cl)c(S(C)(=O)=O)c2)CCN1c1ncc(CO)c(C(F)(F)F)n1` and give its measured EC50.
# output 95

# input Consider the compound Cc1nc(N2CCN(c3ccc(F)c(S(C)(=O)=O)c3)CC2CC(F)(F)F)ncc1C(C)(C)O (stereo not shown) and give its measured EC50.
# output 1310

# input Consider the compound NS(=O)(=O)c1cccc(N2CCN(CC3CCN(CC(F)(F)F)CC3)[C@@H](c3ccccc3)C2)c1 (single isomer, unassigned) and give its measured EC50.
# output 822

====

Biological target: Gal4 DNA binding domain fused to the LBD of LXRβ in HEK293 cells (Homo sapiens (Human), UniProt P55055)
Assay: cell-based
Details: Biological Test Example 2, agonist mode; read-out: Cell LXRβ EC50
In plain terms, low EC50, meaning strictly below 700 nM, gives YES, and everything else gives NO.

# input Please state whether EC50 is below 700 nM for CS(=O)(=O)c1cccc(N2CCN(C[C@H]3C[C@@H]4[C@H](C3)C4(F)F)[C@H](c3ccccc3)C2)c1 (single isomer, unassigned) [48-65]
# output NO

# input Please state whether EC50 is below 700 nM for CS(=O)(=O)c1cccc(N2CCN(C[C@H]3CC[C@]4(CC3)CC4(F)F)[C@@H](c3ccccc3)C2)c1 (single isomer, unassigned) [48-71]
# output YES

# input Please state whether EC50 is below 700 nM for CS(=O)(=O)c1cc(N2CCN(C[C@H]3CC[C@H](C(F)(F)F)CC3)[C@@H](c3ccccc3)C2)ccc1C#N (single isomer, unassigned) [50-4]
# output NO

# input Please state whether EC50 is below 700 nM for CS(=O)(=O)c1cc(N2CCN(C[C@H]3CC[C@H](C(F)(F)F)CC3)[C@H](c3ccccc3)C2)ccc1C#N (single isomer, unassigned) [50-3]
# output NO

# input Please state whether EC50 is below 700 nM for COCc1ccc(N2CCN(C[C@H]3CC[C@H](C(F)(F)F)CC3)[C@@H](c3ccccc3)C2)cc1S(C)(=O)=O [48-49]
# output NO

# input Please state whether EC50 is below 700 nM for CC(C)[C@H]1CC[C@H](CN2CCN(c3ccc(CO)c(S(C)(=O)=O)c3)C[C@H]2c2ccccc2)CC1 (single isomer, unassigned) [48-78]
# output NO

# input Please state whether EC50 is below 700 nM for CS(=O)(=O)c1cc(N2CCN(C[C@H]3CC[C@@H](C(F)(F)F)CC3)[C@@H](c3ccccc3)C2)ccc1C#N (single isomer, unassigned) [50-6]
# output YES

# input Please state whether EC50 is below 700 nM for CS(=O)(=O)c1cccc(N2CCN(C[C@@H]3C[C@H]4CC[C@@H](C3)N4CC(F)(F)F)[C@@H](c3ccccc3)C2)c1 [48-76]
# output YES

# input Please state whether EC50 is below 700 nM for CS(=O)(=O)c1cccc(N2CCN(C[C@@H]3C[C@H]4CC[C@@H](C3)N4CC(F)(F)F)[C@H](c3ccccc3)C2)c1 [48-75]
# output NO

# input Please state whether EC50 is below 700 nM for CS(=O)(=O)c1cc(N2CCN(C[C@H]3CC[C@@H](C(F)(F)F)CC3)[C@H](c3ccccc3)C2)ccc1C#N (single isomer, unassigned) [50-5]
# output NO

# input Please state whether EC50 is below 700 nM for CO[C@H]1CC[C@H](CN2CCN(c3ccc(CO)c(S(C)(=O)=O)c3)C[C@@H]2C(C)C)CC1 (single isomer, unassigned) [51-6]
# output YES
